- TESTED_ON: S100B (Homo sapiens, UniProt P04271)
- Construct: made in house; host or cells: Escherichia coli BL21(DE3)
- Sequence (P04271 1-92): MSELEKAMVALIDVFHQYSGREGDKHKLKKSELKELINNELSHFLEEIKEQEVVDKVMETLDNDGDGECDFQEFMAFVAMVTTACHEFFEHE
- TEST_DETAILS: Pull-down assay with immobilized protein and LSM libraries
- Format: binding
- CONDITION_LABEL: H12 library; 1:1 binding assumed; read-out: Surface mapping KD (apparent)
pKd: −log10 of the molar value.
Could you label it Fulfilled if measured pKd is 4 or higher, and Not fulfilled otherwise?

Consider the following illustrative entries.
>  <MOLECULE>
CC(C)C[C@@H](CC(=O)N[C@H]1CCC[C@@H]1C(=O)N[C@H]1CCC[C@@H]1C(N)=O)NC(=O)[C@H]1CCC[C@@H]1NC(=O)[C@H]1CCC[C@@H]1NC(=O)C[C@H](CCCCN)NC(=O)[C@H]1CCC[C@@H]1NC(=O)[C@H]1CCC[C@@H]1N [H12 KL]

>  <GROUP_LABEL>
Fulfilled

$$$$
>  <MOLECULE>
CC(C)C[C@@H](CC(=O)N[C@H]1CCC[C@@H]1C(=O)N[C@H]1CCC[C@@H]1C(=O)N[C@H](CC(=O)N[C@H]1CCC[C@@H]1C(=O)N[C@H]1CCC[C@@H]1C(N)=O)Cc1ccccc1)NC(=O)[C@H]1CCC[C@@H]1NC(=O)[C@H]1CCC[C@@H]1N [H12 LF]

>  <GROUP_LABEL>
Fulfilled

$$$$
>  <MOLECULE>
N=C(N)NCCC[C@@H](CC(=O)N[C@H]1CCC[C@@H]1C(=O)N[C@H]1CCC[C@@H]1C(=O)N[C@@H](CCC(N)=O)CC(=O)N[C@H]1CCC[C@@H]1C(=O)N[C@H]1CCC[C@@H]1C(N)=O)NC(=O)[C@H]1CCC[C@@H]1NC(=O)[C@H]1CCC[C@@H]1N [H12 RQ]

>  <GROUP_LABEL>
Not fulfilled

$$$$

Prompt: Please check the record NC(=O)C[C@@H](CC(=O)N[C@H]1CCC[C@@H]1C(=O)N[C@H]1CCC[C@@H]1C(N)=O)NC(=O)[C@H]1CCC[C@@H]1NC(=O)[C@H]1CCC[C@@H]1NC(=O)C[C@H](Cc1ccc(O)cc1)NC(=O)[C@H]1CCC[C@@H]1NC(=O)[C@H]1CCC[C@@H]1N [H12 YN] and state if its pKd is at or above 4.
Completion: Not fulfilled

Prompt: Hello, I need to know if NC(=O)[C@H]1CCC[C@@H]1NC(=O)[C@H]1CCC[C@@H]1NC(=O)C[C@H](Cc1ccccc1)NC(=O)[C@H]1CCC[C@@H]1NC(=O)[C@H]1CCC[C@@H]1NC(=O)C[C@H](Cc1c[nH]c2ccccc12)NC(=O)[C@H]1CCC[C@@H]1NC(=O)[C@H]1CCC[C@@H]1N [H12 WF] has measured pKd not below 4. Thanks!
Completion: Fulfilled

Prompt: Check this molecule for pKd at or above 4: NCCCC[C@@H](CC(=O)N[C@H]1CCC[C@@H]1C(=O)N[C@H]1CCC[C@@H]1C(=O)N[C@H](CC(=O)N[C@H]1CCC[C@@H]1C(=O)N[C@H]1CCC[C@@H]1C(N)=O)Cc1ccccc1)NC(=O)[C@H]1CCC[C@@H]1NC(=O)[C@H]1CCC[C@@H]1N [H12 KF]
Completion: Fulfilled

Prompt: Can CSCC[C@@H](CC(=O)N[C@H]1CCC[C@@H]1C(=O)N[C@H]1CCC[C@@H]1C(N)=O)NC(=O)[C@H]1CCC[C@@H]1NC(=O)[C@H]1CCC[C@@H]1NC(=O)C[C@H](CC(C)C)NC(=O)[C@H]1CCC[C@@H]1NC(=O)[C@H]1CCC[C@@H]1N [H12 LM] be said to have pKd at or above 4?
Completion: Fulfilled
